Give self-splicing fitness (ln) for every item shown.
assay: self-splicing fitness, log relative to wild type (ln ratio); higher = more splicing; Tetrahymena group I intron in knt gene, E. coli kanamycin selection, DiMSum; sequences stand for … in CUCUCU…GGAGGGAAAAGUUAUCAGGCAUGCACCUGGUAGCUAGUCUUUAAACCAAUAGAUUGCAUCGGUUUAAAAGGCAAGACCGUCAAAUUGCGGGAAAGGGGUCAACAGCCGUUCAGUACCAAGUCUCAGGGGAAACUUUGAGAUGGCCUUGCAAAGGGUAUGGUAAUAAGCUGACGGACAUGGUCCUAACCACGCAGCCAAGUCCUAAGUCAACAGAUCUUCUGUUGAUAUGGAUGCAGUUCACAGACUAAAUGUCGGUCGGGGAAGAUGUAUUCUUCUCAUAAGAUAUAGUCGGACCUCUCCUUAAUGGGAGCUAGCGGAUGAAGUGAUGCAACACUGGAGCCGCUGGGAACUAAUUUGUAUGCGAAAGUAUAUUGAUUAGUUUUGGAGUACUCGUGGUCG;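 further: selection with 25 µg/mL kanamycin versus none on LB agar overnight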
studyConditions: 30 °C

Sample records with self-splicing fitness (ln):
UCUAAGCAAUAUUACGUCCA ... -2
GGUCAGCAAUAUUACGACCA ... -0.982
CGCAAGCAAUAUUACGGACC ... -1.72
GGGCAGCAAUAUUACGUAAU ... -0.917
GAUAAGCAAUAUUACGGGUG ... -1.09

Give measured self-splicing fitness (ln) for every item shown.
1. CACGAGCAAUAUUACGAAUG
2. GGCAAGCAAUAUUACGGCCU
3. AACCAGCAAUAUUACGGCCG
4. ACAAAGCAAUAUUACGUACC

Response line:
-2.66
-2.74
0.0592
-1.13

Cited source for all entries: the supplement of paper PMC7877785
